- EXPERIMENTAL_PROTOCOL: Ratio of temozolomide AUC to compound AUC for drug level in brain of Sprague-Dawley rat
- Format: ADME
- EXPERIMENTAL_CONDITIONS: in vivo
REPORTED_ENDPOINT: Ratio AUC
Keep the answer to the number alone.

Consider the worked cases shown below.
CN1CCc2c(n(CCNC(=O)c3ncn4c(=O)n(C)nnc34)c3ccc(Cl)cc23)C1    10.8
Cc1ccc2c(c1)c1c(n2C)CCN(CCNC(=O)c2ncn3c(=O)n(C)nnc23)C1    1.4
Cc1ccc2c(c1)c1c(n2CCNC(=O)c2ncn3c(=O)n(C)nnc23)CCN(C)C1    8.9
Cn1nnc2c(C(=O)N3CCc4c(n(C5CC5)c5c(Cl)cc(Cl)cc45)C3)ncn2c1=O    0.5
Cc1ccc2c(c1)c1c(n2C)CN(C(=O)c2ncn3c(=O)n(C)nnc23)CC1    2.3

Now, please, on to the next compound.
Incoming: Any idea what Ratio AUC was measured for `Cc1ccc2[nH]c3c(c2c1)CN(CCNC(=O)c1ncn2c(=O)n(C)nnc12)CC3` ?
Outgoing: 7.5

----------
- EXPERIMENTAL_PROTOCOL: Ratio of AUC in brain to plasma of Sprague-Dawley rat at 10 mg/kg, iv after 30 to 180 mins by LC-MS/MS analysis
- Type: ADME, organism-based
- EXPERIMENTAL_CONDITIONS: read-out: Ratio AUC
REPORTED_ENDPOINT: Kp
The answer should be a number; do not append a unit.

The following compounds have reported results that may help.
Cc1ccc2c(c1)c1c(n2CCNC(=O)c2ncn3c(=O)n(C)nnc23)CCN(C)C1    0.67
Cc1ccc2c(c1)c1c(n2C)CN(C(=O)c2ncn3c(=O)n(C)nnc23)CC1    3.79
Cc1ccc2[nH]c3c(c2c1)CN(CCNC(=O)c1ncn2c(=O)n(C)nnc12)CC3    0.75
Cn1nnc2c(C(=O)N3CCc4c(n(C5CC5)c5c(Cl)cc(Cl)cc45)C3)ncn2c1=O    10.4
Cn1nnc2c(C(N)=O)ncn2c1=O [TEMOZOLOMIDE]    0.34

Incoming: Consider the compound shown here: `CN1CCc2c(n(CCNC(=O)c3ncn4c(=O)n(C)nnc34)c3ccc(Cl)cc23)C1` What is its recorded Kp?
Outgoing: 1.36

Incoming: Bench note: what Kp did `Cc1ccc2c(c1)c1c(n2C)CCN(CCNC(=O)c2ncn3c(=O)n(C)nnc23)C1` show?
Outgoing: 0.82

----------
- EXPERIMENTAL_PROTOCOL: Plasma concentration in Sprague-Dawley rat plasma at 10 mg/kg, iv after 90 mins by LC-MS/MS analysis
- Assay type: ADME, organism-based
REPORTED_ENDPOINT: concentration at 1.5 h (ng/mL)
Number in ng/mL, nothing else.

A selection of reference data follows.
Cn1nnc2c(C(=O)N3CCc4c(n(C5CC5)c5c(Cl)cc(Cl)cc45)C3)ncn2c1=O    438
CN1CCc2c(n(CCNC(=O)c3ncn4c(=O)n(C)nnc34)c3ccc(Cl)cc23)C1    123
Cc1ccc2c(c1)c1c(n2C)CCN(CCNC(=O)c2ncn3c(=O)n(C)nnc23)C1    2140
Cn1nnc2c(C(N)=O)ncn2c1=O [TEMOZOLOMIDE]    6480
Cc1ccc2c(c1)c1c(n2C)CN(C(=O)c2ncn3c(=O)n(C)nnc23)CC1    256
Cc1ccc2c(c1)c1c(n2CCNC(=O)c2ncn3c(=O)n(C)nnc23)CCN(C)C1    387

Incoming: Any idea what concentration at 1.5 h was measured for `Cc1ccc2[nH]c3c(c2c1)CN(CCNC(=O)c1ncn2c(=O)n(C)nnc12)CC3` ?
Outgoing: 302

----------
- EXPERIMENTAL_PROTOCOL: AUC in Sprague-Dawley rat plasma at 10 mg/kg, iv after 30 to 180 mins by LC-MS/MS analysis
- Assay type: ADME, organism-based
- EXPERIMENTAL_CONDITIONS: in vivo
Quick list: AUC per entry.
Could you give me the number in ng·h/g? Just the number is fine.

Cn1nnc2c(C(=O)N3CCc4c(n(C5CC5)c5c(Cl)cc(Cl)cc45)C3)ncn2c1=O    1070
Cc1ccc2c(c1)c1c(n2C)CCN(CCNC(=O)c2ncn3c(=O)n(C)nnc23)C1    4890
Cc1ccc2[nH]c3c(c2c1)CN(CCNC(=O)c1ncn2c(=O)n(C)nnc12)CC3    998
CN1CCc2c(n(CCNC(=O)c3ncn4c(=O)n(C)nnc34)c3ccc(Cl)cc23)C1    386
Cc1ccc2c(c1)c1c(n2C)CN(C(=O)c2ncn3c(=O)n(C)nnc23)CC1    650

Now consider a different molecule.
Incoming: What AUC value was documented for this molecule, `Cc1ccc2c(c1)c1c(n2CCNC(=O)c2ncn3c(=O)n(C)nnc23)CCN(C)C1` ?
Outgoing: 959

Reference source: ChEMBL document CHEMBL3853338
